This section presents compounds with their documented IC50 values.
system: CEM cells HIV-1 protection, formazan growth assay; test: NCI AIDS Antiviral Assay; details: measured here: growth of uninfected CEM cells

# Compound, IC50
rows = [
    ("CC1=C(C(=O)Nc2ccccc2)C(c2ccc3c(c2)OCO3)C(C(=O)Nc2ccccc2)=C(C)N1", "> 11.2 µM"),
    ("C=CCCC(=O)N1CCC(C(=O)OCC)C1=O (stereo unspecified)", "> 200 µM"),
    ("O=c1[nH][nH]c(=O)c2ncccc12", "> 200 µM"),
    ("ClCCCC1COc2ccccc2O1 (stereo unspecified)", "> 200 µM"),
    ("Cc1cc(=O)c2c([nH]1)NS(=O)(=O)NC2=O", "> 1480 µM"),
    ("COC(=O)CCS/C=C/C(=O)O", "> 1320 µM"),
]

###

test system: CEM cells HIV-1 protection, formazan growth assay; assay: NCI AIDS Antiviral Assay
This section presents molecules with their documented EC50 values.

# Molecule, EC50
records = [
    ("NC(CCOCCP(=O)(O)O)C(=O)O (stereo unspecified)", "> 200 µM"),
    ("Cc1nc2ccc(N=Nc3c(O)ccc4ccccc34)cc2[nH]1", "> 61.7 µM"),
    ("O=C1/C(=C/c2ccco2)N=C2Sc3c(nc[nH]c3=O)N12", "> 200 µM"),
    ("CC(=O)NC(=O)C(C(C)=O)c1ccccc1 (stereo unspecified)", "> 1150 µM"),
    ("CCCC1=C(OC)C(=O)c2c(C)cc(Cl)nc2C1=O", "> 200 µM"),
    ("Clc1ccc(CN2CCCN(Cc3ccc(Cl)c(Cl)c3)S2)cc1Cl", "> 61.7 µM"),
    ("Cc1cccc(N=Nc2ccc(O)c(CN(C)C)c2)c1", "> 200 µM"),
    ("CON(C)c1nc2ccccc2o1", "> 200 µM"),
    ("O=C(O)c1ccccc1C1c2ccc(Cl)cc2Oc2cc(Cl)ccc21", "> 10 µM"),
    ("COc1c(O)cc2oc(-c3ccc(O)c(O)c3)cc(=O)c2c1O", "> 38 µM"),
    ("CCOC(=O)C(O)(NC(C)=O)C(F)(F)F (stereo unspecified)", "> 200 µM"),
    ("COc1ccc(C[C@H]2COC(=O)[C@@H]2Cc2cc(OC)c(O)c(OC)c2)cc1OC", "> 200 µM"),
    ("c1ccc(-c2ccccc2SSc2ccccc2-c2ccccc2)cc1", "> 200 µM"),
    ("C=C1CCC2CC1C(C(=O)c1c[nH]c3ccccc13)=NC2(C)C (stereo unspecified)", "> 407 µM"),
    ("CCOC(=O)c1sc2nc(SC)nc(N3CCCCC3)c2c1N", "> 100 µM"),
    ("NC(=O)C(=CNc1nc(-c2cccc([N+](=O)[O-])c2)cs1)C(N)=O", "> 200 µM"),
    ("Cc1cn([C@@H]2O[C@H](CO[Si](C)(C)C(C)(C)C)[C@]3(O[C@H]3C(=O)NO)[C@H]2O[Si](C)(C)C(C)(C)C)c(=O)[nH]c1=O", "> 200 µM"),
    ("CC1(C)CCCCCC(C)(CCCO)C1=O (stereo unspecified)", "> 200 µM"),
    ("COc1ccccc1NC1=NCC(C)S1 (stereo unspecified)", "> 200 µM"),
    ("CC1=NN(c2ccccc2)C(=O)/C1=C\\n1c(=S)[nH]c2ccccc21", "> 200 µM"),
    ("C/C(=N/OC(=O)N(C)C)c1cccs1", "> 200 µM"),
]

Data origin, for the record: PubChem BioAssay AID179
